B1: INTS4 (parent)
chain: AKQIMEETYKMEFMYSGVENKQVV

Variants of: B1
Experiment: protein stability index of a GFP-peptide fusion (GPS, HEK-293T) (PSI 1-6); higher = more stable;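 further: lentivirally expressed fusions sorted by FACS into six bins by GFP to DsRed ratio, PSI derived from sequencing read proportions per bin multiplied by bin number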
Conditions: c terminus: a fixed tail appended
The threshold is inclusive: protein stability index of exactly 2 counts as 1; values below receive 0.

VARIANT_NOTATION | LABEL_CLASS
Y9S | 1
E6P | 1
E7P | 1
N20D | 0
A1P | 1
V18L | 1
M11Y | 1
K2N | 1
V24I | 0
A1R | 1
E6I | 1
M11E | 1
F13E | 1
Y9G | 1
Y9D | 1
A1Y | 1
M5E | 1
Y9N | 1
E6W | 1
G17Q | 1
V23M | 1
Y9R | 1
T8A | 0
K2C | 1
F13V | 0
K10V | 1
Q3C | 0
S16I | 1
F13H | 1
I4Y | 1
G17L | 0
K10Y | 1
E12P | 1
A1H | 1
I4F | 1
K2Q | 1
S16D | 0
M5D | 1
K10N | 0
T8F | 0
F13N | 1
N20H | 0
E12A | 1
Y9V | 1
V23G | 0
Q3P | 1
E6N | 1
E19H | 1
A1D | 1
E7L | 0
V18T | 0
N20V | 0
K2A | 0
T8R | 0
E7Q | 0
V23N | 1
E19G | 0
F13Y | 1
Y15E | 1
Q3S | 1
K10T | 0
S16A | 1
K2E | 1
V23K | 0
E12C | 0
M14K | 0
G17N | 0
Q22E | 0
F13G | 1
M5Y | 1
E7I | 1
Q3E | 1
Q3I | 1
Y15T | 1
Y9Q | 1
Y9W | 1
V18H | 0
Q3R | 0

Values compiled from the supplement of paper PMC10567573.
